Reported values of microsomal CLint at 1 µM for individual entries
# assay: Clearance in rat liver microsomes at 1 umol/L after 20 mins by HPLC analysis in presence of NADPH
# Format: ADME, Microsome
# condition.summary: read-out: CLH
Number in µL/min/mg, nothing else.

Recorded microsomal CLint at 1 µM, per entry:
| query.smiles | unit.descriptor | microsomal CLint at 1 µM |
| --- | --- | --- |
| CCCCCS(=O)(=O)NC(=O)OCCCc1ccc(OCCOC)cc1Oc1ncc(C(F)(F)F)cc1Cl | µL/min/mg | 35 |
| CCCCCS(=O)(=O)NC(=O)/C=C/c1ccc(OC(C)C)cc1Oc1ncc(C(F)(F)F)cc1Cl | µL/min/mg | 19 |
| COCCOc1ccc(CCC(=O)NS(=O)(=O)c2ccc(Cl)cc2)c(Oc2ncc(C(F)(F)F)cc2Cl)c1 | µL/min/mg | 71 |

// below: microsomal CLint at 1 µM requested for another compound
Query (compound): CCCCCS(=O)(=O)NCCCc1ccc(OCCOC)cc1Oc1ncc(C(F)(F)F)cc1Cl ; field requested: microsomal CLint at 1 µM
204
